Test: AUC (0 to infinity) in Sprague-Dawley rat at 25 mg/kg, po formulated using SMEDDS administered once via gavage measured upto 24 hrs post dose by UPLC-MS/MS analysis
Type: ADME, organism-based
Set-up: dose 25 mg/kg, time < 24 hrs, route po
Conditions: in vivo
measuredEndpoint: AUC(0-inf) (ng·h/mL)
One number for each entry, in ng·h/mL.

Quick one: AUC(0-inf) for "C#CCN(C)Cc1cccc(NC(=O)CCCCCCC(=O)NO)c1" ?
596

###

Assay: Metabolic stability in Beagle dog hepatocyte assessed as half life at 10 uM by LC-MS/MS analysis
Assay type: ADME, cell-based, Canis lupus familiaris
Settings: hepatocytes
measuredEndpoint: half-life at 10 µM

// returns reported half-life at 10 µM for input "C#CCN(C)Cc1cccc(NC(=O)CCCCCCC(=O)NO)c1"
3.61 h
